measurementTarget: human histamine H4 receptor (Homo sapiens, UniProt Q9H3N8)
Construct: expressed in transfected cells; host or cells: SK-N-MC cells or COS7 cells, transiently transfected; cell membranes used
Sequence (Q9H3N8 whole entry): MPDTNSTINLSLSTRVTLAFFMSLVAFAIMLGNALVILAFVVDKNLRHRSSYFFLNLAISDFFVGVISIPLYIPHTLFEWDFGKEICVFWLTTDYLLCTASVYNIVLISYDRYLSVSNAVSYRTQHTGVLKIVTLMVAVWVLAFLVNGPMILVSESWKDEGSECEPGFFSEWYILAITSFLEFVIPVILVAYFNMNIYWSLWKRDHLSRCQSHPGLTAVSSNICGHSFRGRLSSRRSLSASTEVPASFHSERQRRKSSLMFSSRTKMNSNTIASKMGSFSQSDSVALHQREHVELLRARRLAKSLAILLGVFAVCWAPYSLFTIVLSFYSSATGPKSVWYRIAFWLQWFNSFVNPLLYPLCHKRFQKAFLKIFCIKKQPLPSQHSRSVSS
test: Binding assay on recombinant human histamine H4 receptor (3H-histamine displacement)
recordedEndpoint: pKi
// field semantics: pKi = negative decimal log of concentration (mol/L)

Entry CN1CCC(CCCOc2ccc(-c3nc4ccccc4[nH]3)cc2)CC1 , pKi reported as 6.80

====

measurementTarget: human histamine H4 receptor (Homo sapiens)
Construct: expressed in transfected cells; host or cells: SK-N-MC cells or COS7 cells, transiently transfected; cell membranes used
test: Binding assay on recombinant human histamine H4 receptor (3H-histamine displacement)
testSettings: competition binding with 3H-histamine; membranes of SK-N-MC or COS7 cells expressing human H4 receptor; Cheng-Prusoff, KD 5 nM, ligand 5 nM
The entries below are paired with their reported Ki.
Provide only the numeric value, understood in nM.

molecule	quantitativeResult
CN1CCC(CCCOc2ccc(-c3nc4cc(Cl)c(F)cc4[nH]3)cc2)CC1 [Example 62]	51
Cc1cc(OCCCN2CCNCCC2=O)ccc1-c1nc2c(C)cc(Cl)cc2[nH]1 [Example 84]	267
Cc1cc(OCCCC2=CCN(C)CC2)ccc1-c1nc2c(C)c(F)ccc2[nH]1 [Example 94]	13
CN1CCN(CCCOc2ccc(-c3nc4cc(C(F)(F)F)ccc4[nH]3)c(Cl)c2)CC1 [Example 54]	30
Cc1cccc2[nH]c(-c3ccc(OCCCC4CCN(C)CC4)nc3)nc12 [Example 106]	12

Entry Cc1c(-c2nc3c(C)cc(Cl)cc3[nH]2)ccnc1OCCCCC1CCN(C)CC1 [Example 157] , Ki reported as 28

Entry Cc1ccc2[nH]c(-c3ccc(OCCCN4CCN(C)CC4)cc3Cl)nc2c1 [Example 42] , Ki reported as 79

Entry Cc1cccc2[nH]c(-c3ccc(OCCCC4=CCN(C)CC4)nc3)nc12 [Example 122] , Ki reported as 71
